All values here come from patent US20050261472A1.

system: DD(E) soluble fibrin-derived polypeptide (UniProt P02671)
procedure summary: synthetic peptide, Kd against DD(E) target
pKd: −log10 of the molar value. Bridge positions count the residues as written; N and C are the ends. Ends that are not written are not given here.
In this section we review reported pKd values for a set of binders.
assay readout: pKd

binder: WFHCPYDLCHIL (disulfide 4-9 (inferred))
assay readout: pKd
measured: 5.58
//
binder: QWECPYGLCWIQ (disulfide 4-9 (inferred))
assay readout: pKd
measured: 5.53
